# MEASUREMENT TARGET: ϕMalE-NapAsp^His (E. coli)
# METHOD NOTES: ITC
OBSERVATION TYPE: stoichiometry N

1. NapD A14T (NapD^His variant) (natural protein) MHTNWQVCSLVVQTKSERISDISTQLNAFPGCEVAVSDAPSGQLIVVVEAEDSETLIQTIESVRNVEGVLAVSLVYHQQEEQGEETP	0.7
2. NapD A14T/A71T (NapD^His variant) (natural protein) MHTNWQVCSLVVQTKSERISDISTQLNAFPGCEVAVSDAPSGQLIVVVEAEDSETLIQTIESVRNVEGVLTVSLVYHQQEEQGEETP	0.91
3. NapD T59I (NapD^His variant) (natural protein) MHTNWQVCSLVVQAKSERISDISTQLNAFPGCEVAVSDAPSGQLIVVVEAEDSETLIQIIESVRNVEGVLAVSLVYHQQEEQGEETP	0.81
